B1: KCNK9 (parent)
chain: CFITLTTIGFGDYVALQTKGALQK

Variants of: B1
Test: protein stability index of a GFP-peptide fusion (GPS, HEK-293T) (PSI 1-6); higher = more stable;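 note: lentivirally expressed fusions sorted by FACS into six bins by GFP to DsRed ratio, PSI derived from sequencing read proportions per bin multiplied by bin number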
Conditions: c terminus: a fixed tail appended
Classification field: t = protein stability index at or over 3; f = protein stability index under 3.

Some solved entries appear below for comparison.
G9T	f
G20Y	f
K24Q	f
V14W	f
T6P	f

Does the variant Y13A have recorded protein stability index that is 3 or more? t

Item K24M with protein stability index of 3 or above? f
